# System: NCI-H1793
# Run Description: relative viability (nuclei count vs DMSO), 5 days (fraction); higher = more cells survive
# Test Context: first compound 0.02 µM
Result Type: relative viability

Find the recorded relative viability belonging to CC(=O)O[C@@]12CO[C@@H]1C[C@H](O)[C@@]1(C)C(=O)[C@H](O)C3=C(C)[C@@H](OC(=O)[C@H](O)[C@@H](NC(=O)OC(C)(C)C)c4ccccc4)C[C@@](O)([C@@H](OC(=O)c4ccccc4)[C@H]21)C3(C)C [Docetaxel] + Nc1nc2[nH]cc(CCc3ccc(C(=O)N[C@@H](CCC(=O)O)C(=O)O)cc3)c2c(=O)[nH]1 [Pemetrexed] (partner 0.2 µM) and report it.
0.188

Find the recorded relative viability belonging to CC(=O)O[C@@]12CO[C@@H]1C[C@H](O)[C@@]1(C)C(=O)[C@H](O)C3=C(C)[C@@H](OC(=O)[C@H](O)[C@@H](NC(=O)OC(C)(C)C)c4ccccc4)C[C@@](O)([C@@H](OC(=O)c4ccccc4)[C@H]21)C3(C)C [Docetaxel] + NC(=O)Nc1cc(-c2cccc(F)c2)sc1C(=O)N[C@H]1CCCNC1 [AZD7762] (partner 0.2 µM) and report it.
0.144

Find the recorded relative viability belonging to CC(=O)O[C@@]12CO[C@@H]1C[C@H](O)[C@@]1(C)C(=O)[C@H](O)C3=C(C)[C@@H](OC(=O)[C@H](O)[C@@H](NC(=O)OC(C)(C)C)c4ccccc4)C[C@@](O)([C@@H](OC(=O)c4ccccc4)[C@H]21)C3(C)C [Docetaxel] + C[C@]1(O)C[C@@H](c2nc(-c3ccc4ccc(-c5ccccc5)nc4c3)c3c(N)nccn32)C1 [Linsitinib] (partner 1 µM) and report it.
0.218

Find the recorded relative viability belonging to CC(=O)O[C@@]12CO[C@@H]1C[C@H](O)[C@@]1(C)C(=O)[C@H](O)C3=C(C)[C@@H](OC(=O)[C@H](O)[C@@H](NC(=O)OC(C)(C)C)c4ccccc4)C[C@@](O)([C@@H](OC(=O)c4ccccc4)[C@H]21)C3(C)C [Docetaxel] + O=C(CCCCCCC(=O)Nc1ccccc1)NO [Vorinostat] (partner 1 µM) and report it.
0.163

Find the recorded relative viability belonging to CC(=O)O[C@@]12CO[C@@H]1C[C@H](O)[C@@]1(C)C(=O)[C@H](O)C3=C(C)[C@@H](OC(=O)[C@H](O)[C@@H](NC(=O)OC(C)(C)C)c4ccccc4)C[C@@](O)([C@@H](OC(=O)c4ccccc4)[C@H]21)C3(C)C [Docetaxel] + Cc1nc(NC(=O)N2CCC[C@H]2C(N)=O)sc1-c1ccnc(C(C)(C)C(F)(F)F)c1 [Alpelisib] (partner 2 µM) and report it.
0.222

Find the recorded relative viability belonging to CC(=O)O[C@@]12CO[C@@H]1C[C@H](O)[C@@]1(C)C(=O)[C@H](O)C3=C(C)[C@@H](OC(=O)[C@H](O)[C@@H](NC(=O)OC(C)(C)C)c4ccccc4)C[C@@](O)([C@@H](OC(=O)c4ccccc4)[C@H]21)C3(C)C [Docetaxel] + Nc1ncn([C@H]2C[C@H](O)[C@@H](CO)O2)c(=O)n1 [Decitabine] (partner 2 µM) and report it.
0.18

---

Field: relative viability. Provide a value for each of the compounds that follow.
# Test system: IA-LM
# Run Description: relative viability (nuclei count vs DMSO), 5 days (fraction); higher = more cells survive
# Test Context: first compound 50 µM
Number only, no unit.

Find the recorded relative viability belonging to O=C(O)CCCCC(CCSCc1ccccc1)SCc1ccccc1 (configuration not stated) [CPI-613] + O=C(c1cc(Cc2n[nH]c(=O)c3ccccc23)ccc1F)N1CCN(C(=O)C2CC2)CC1 [Olaparib] (partner 8 µM) and report it.
0.866

Find the recorded relative viability belonging to O=C(O)CCCCC(CCSCc1ccccc1)SCc1ccccc1 (configuration not stated) [CPI-613] + CC1(C)CCC(c2ccc(Cl)cc2)=C(CN2CCN(c3ccc(C(=O)NS(=O)(=O)c4ccc(N[C@H](CCN5CCOCC5)CSc5ccccc5)c(S(=O)(=O)C(F)(F)F)c4)cc3)CC2)C1 [Navitoclax] (partner 0.5 µM) and report it.
0.685
